Molecular target: T1, human PRLR (Biacore antigen) (human, UniProt P16471 25-234, limits assumed)
T1 construct: The construct injected over captured antibody is not described (a soluble form is likely); also called huPRLR
T1 sequence: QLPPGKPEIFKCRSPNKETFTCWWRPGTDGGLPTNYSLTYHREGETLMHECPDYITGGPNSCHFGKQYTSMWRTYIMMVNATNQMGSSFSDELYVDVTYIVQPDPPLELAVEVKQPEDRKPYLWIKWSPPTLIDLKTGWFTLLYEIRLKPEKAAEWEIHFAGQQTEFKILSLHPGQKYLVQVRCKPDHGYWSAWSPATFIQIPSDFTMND
Test: SPR Biacore
measured_property: Kd (nM)
Respond with the bare value in nM.

Ab17 (antibody, human IgG1, kappa, V domains shown, humanized from Ab6; G1; also called Ab1 HC.1 and Ab1 LC.2a) VH: EVQLVQSGAEVKKPGSSVKVSCKASGYTFTTYWMHWVRQAPGQGLEWMGEIDPSDSYSNYNQKFKDRVTITADKSTSTAYMELSSLRSEDTAVYYCARNGGLGPAWFSYWGQGTLVTVSS VL: EIVMTQSPATLSVSPGERATLSCKASQYVGTAVAWYQQKPGQSPRLLIYSASNRYTGVPARFSDSGSGTEFTLTISSLQSEDFAVYFCQQYSSYPWTFGGGTKVEIKR    1.06

Problem: Tell me measured Kd for chAb5 (antibody, human IgG1, kappa, V domains shown, chimeric, murine variable and human G1/kappa constant regions) VH: QVQLQQPGAELVRPGTSVKLSCKASGYTFTSFWMHWVKQRPGQGLEWIGVIDPSDTYTNYNQKFKGKATLTVDTSSSTAYMQLSSLTSEDSAVYYCARGDYSNWFTYWGQGTLVTVSA VL: DVVMTQTPLSLPVSLGDQASISCRSSQRLVHSNGNTYLHWYLQKPGQSPKLLIYKVSNRFSGVPDRFSGSGSGTDFTLKISRVEAEDLGVYFCSQSTHVPWTFGGGTKLEIKT please.
Solution: 0.558

Problem: Report Kd, nothing else, for this binder: Ab36 (antibody, human IgG1, kappa, V domains shown, humanized from Ab7; G1; also called Ab4 HC.1 and Ab4 LC.1a) VH: EVQLVQSGAEVKKPGSSVKVSCKASGYTFTSYWIHWVRQAPGQGLEWMGEIDPSDSYTNYNQKFKGRVTITADKSTSTAYMELSSLRSEDTAVYYCARSFFTNWFAYWGQGTLVTVSS VL: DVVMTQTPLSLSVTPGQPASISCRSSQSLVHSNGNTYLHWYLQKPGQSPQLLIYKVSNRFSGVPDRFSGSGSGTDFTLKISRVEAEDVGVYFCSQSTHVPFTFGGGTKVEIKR
Solution: 8.13
